Test system: PC-3 prostate
Assay: NCI-60 one-dose screen, 48 h (100 = growth as untreated, 0 = no growth, -100 = all killed)
Conditions: 10 µM
This is part of a sample that, as a whole, favours compounds with a hit. Of some 83,000 tested, about 20% had one in any assay.
Decision: growth compared against 30%; not below it gives Y, below it gives N.

{"COMPOUND": "Clc1ccc(C2=NN=C3C(Cc4ccccc4)=Nc4ccccc4N3C2)cc1", "LABEL VALUE": "Y"}
{"COMPOUND": "COc1cc(/C=C2\\CCCC3=C2N=C2SC(C)=CN2C3c2cc(OC)c(OC)c(OC)c2)cc(OC)c1OC (stereo not drawn)", "LABEL VALUE": "Y"}
{"COMPOUND": "CN(C)CCOc1ccccc1NC1=C(Cl)C(=O)C(Nc2ccccc2OCCN(C)C)=C(Cl)C1=O", "LABEL VALUE": "Y"}
{"COMPOUND": "CC(=O)O[C@@]12CO[C@@H]1C[C@H](O)[C@@]1(C)C(=O)[C@H](O)C3=C(C)[C@@H](OC(=O)[C@H](O)[C@@H](NC(=O)OC(C)(C)C)c4ccccc4)C[C@@](O)([C@@H](OC(=O)c4ccccc4)C12)C3(C)C (stereo partly drawn)", "LABEL VALUE": "Y"}
{"COMPOUND": "O=C(O)COc1c(Cl)cc([N+](=O)[O-])cc1Cl", "LABEL VALUE": "Y"}

Kindly determine if growth recorded for O=C(/C=C/C=C/c1c(C2CC2)nc2ccccc2c1-c1ccc(F)cc1)c1cccs1 is above or exactly 30%. N

Kindly determine if growth recorded for C[C@H]1[C@H](OC(=O)CCC(=O)O)O[C@@H]2O[C@]3(C)CC[C@H]4[C@H](C)CC[C@@H]1[C@@]24OO3 is above or exactly 30%. N

Kindly determine if growth recorded for COc1ccc(/C=c2\sc3n(c2=O)C(c2cc(OC)c(OC)c(OC)c2)C=C(c2ccc(OC)c(OC)c2)N=3)cc1OC (stereo not drawn) is above or exactly 30%. Y

Origin of the recorded values: PubChem BioAssay (NCI)
